- assay-procedure: ATG_CMV_CIS: Attagene CIS-FACTORIAL HepG2 Assay for human CMV (Internal Marker) (AID 2282928);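 note: endpoint acts as a background internal control marker rather than a target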
- particulars: HepG2 CMV promoter reporter, transcription factor profiling; actives raise or lower the signal
Active and inactive are the calls of the source. Rule for the calls: active = hit-call score of the fitted dose curve at least 0.9, where 1 is the maximum; inactive = score below 0.9.
Could you please pick one outcome from this set? active, inactive

Below are worked cases with known answers.
> print(dat)
                                   compound  qualitative.label
1   Cn1cnc([N+](=O)[O-])c1Sc1ncnc2nc[nH]c12             active
2  Cn1c(=O)cc(Oc2ccc(F)cc2F)c2cnc(NCC(C)(C)O)nc21           inactive
3  CCc1cc(SCc2sc(-c3ccc(C(F)(F)F)cc3)nc2CN2CCN(c3ccc(OC)cc3)CC2)ccc1OCC(=O)O           inactive
4  O=C(CCCCCCCCc1cccnc1)N1CCC(C=C(c2ccccc2)c2ccccc2)CC1             active

Okay, now this compound:
Hey, what did the test say about CC(C)=CCCC(C)CCO (stereo not given) ?
inactive

The measured values listed here are drawn from PubChem BioAssay (EPA / NIEHS).
